Reported kon values follow for various binders
STUDY TARGET: T1, 食蟹猴CD38胞外段Flag标签蛋白 cyno-CD38-ECD-Flag (cynomolgus monkey, UniProt Q5VAN0 44-301)
T1 construct: range 44-301; No linker between CD38 and the tag is stated; also called cyno-CD38-Flag
T1 sequence: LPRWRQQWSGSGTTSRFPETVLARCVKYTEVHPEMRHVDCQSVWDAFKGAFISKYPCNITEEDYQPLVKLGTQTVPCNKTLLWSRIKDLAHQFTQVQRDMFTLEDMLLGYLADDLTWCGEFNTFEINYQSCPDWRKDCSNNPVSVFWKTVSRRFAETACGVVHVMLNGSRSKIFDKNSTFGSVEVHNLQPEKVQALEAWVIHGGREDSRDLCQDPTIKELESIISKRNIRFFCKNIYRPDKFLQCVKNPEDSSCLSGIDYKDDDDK
METHOD DESCRIPTION: SPR, Biacore T200; antibody captured on Protein A CM5 chip, cyno-CD38-Flag as analyte
The answer is to be given in M⁻¹ s⁻¹; state only the numeric part.

1) 人源化抗人CD38单克隆抗体57H (antibody, human IgG1, kappa, V domains shown, also called 57号抗体的人源化抗体) VH: EVQLVESGGGLVQPGGSLRLSCAASGFTFSSFGMHWVRQAPGKGLEWVAYIGGDSNIIYYADTVKGRFTISRDNSKNTLYLQMNSLRAEDTAVYYCAKSHDYTMDYWGQGTLVTVSS VL: DIVMTQSPSSLAVSLGERVTITCKSSQSLLYSTNQKNYLAWFQQKPGQSPKLLIYWASTRESGVPDRFSGSGSGTDFTLTISSLQAEDVAVYYCQRYYNYPYTFGQGTKVEIKR ... 54900

Q: Name the recorded kon of the binder listed here: 人源化抗人CD38单克隆抗体116H (antibody, human IgG1, kappa, V domains shown, also called 116号抗体的人源化抗体) VH: QVTLKESGPALVKPTQTLTLTCTLSGFSLSTSRMGVGWIRQPPGKGLEWLAHIWWDDDKRYNPALKSRLTISKDTSSNQVFLKIASVDKEDTATYYCGRIEVGRGAWFAYWGQGTLVTVSS VL: EIVLTQSPATLSLSPGERVSVTCKASQDVVTTVAWYQQKPGQAPRTLIYSASYRYSGVPARFSGSGSGTDFTLTISSLEPEDFAVYYCQQYYTYPFTFGQGTKVEIKR
Ans: 251000

Q: Name the recorded kon of the binder listed here: 人源化抗人CD38单克隆抗体105H (antibody, human IgG1, kappa, V domains shown, Humanized IgG1; also called 105-Humanization; 105号抗体的人源化抗体) VH: QVQLVQSGAEVKKPGASVKVSCKASGYTFTSYWMHWVRQAPGQGLEWIGHINPSSGYSEYSQKFKDRATLTADKSTSTAYMELSSLRSEDTAVYYCEIYYYVSRYVGDSWGQGTLVTVSS VL: DIQMTQSPSSLSASVGDRVTITCRASQEISGYLSWLQQKPGKTIKRLIYAASTLDSGVPSRFSGSRSGSDFTLTISSLQPEDFATYYCLQYDSYPLTFGQGTKVEIKR
Ans: 61100
